System: SF-295 CNS
experimentSummary: NCI tumour cell line growth inhibition, 48 h
# maps each entry to its GI50

Observe how each entry below is paired with its result.
> print(dat)
                                   molecule  testreadout  valuemeasured
1  COc1ccc2c(O)c(/C=C3\N=Nc4ncccc43)oc2c1C[C@H]1CCNC[C@H]1F         GI50         343 nM
2  C=CCC(N[C@@H](CO)c1ccccc1)c1ccccn1 (stereo partly drawn)         GI50    > 100000 nM
3  CCCCCCCCCCCCOC1C(CNCC2OC3OC(C)(C)OC3C2NC(=O)Nc2ccc(C(F)(F)F)cc2)OC2OC(C)(C)OC21 (stereo not drawn)         GI50        9000 nM
4  COc1ccc2c(c1)C(=O)c1c-2c(OCCN(C)C)nc2cc(OC)ccc12         GI50        2220 nM
5  NC(=O)c1ccc2nc(-c3ccc(C4(N)CCC4)cc3)c(-c3ccccc3)n2n1         GI50        1260 nM
6  COc1cc(/C=C2\CCCC3C2=Nc2ccccc2NC3c2cc(OC)c(OC)c(OC)c2)cc(OC)c1OC (stereo not drawn)         GI50        3650 nM
7    Cc1c2cnccc2c(C)c2c1c1cc(C(=O)O)ccc1n2C         GI50        1160 nM

Now for a further molecule.
Q. // GI50 lookup, key: Clc1nc(Cl)c2ncn(C/C=C/Cn3cnc4c(Cl)nc(Cl)nc43)c2n1
A. 16800 nM

* * *

# maps each entry to its GI50
Test system: HCC-2998 colon
experimentSummary: NCI tumour cell line growth inhibition, 48 h

Observe how each entry below is paired with its result.
> print(dat)
                                   compound          target  valuemeasured
1  CCN1CCC2(CC1)NC(=O)c1c(c3ccc(Cl)c(Cl)c3n1C)C2C#N (centres undefined)  HCC-2998 colon        1.73 µM
2  O=S(=O)(O)c1cc(N=Nc2cc(S(=O)(=O)O)c3ccccc3c2O)ccc1/C=C/c1ccc(N=Nc2cc(S(=O)(=O)O)c3ccccc3c2O)cc1S(=O)(=O)O  HCC-2998 colon      > 1000 µM
3  OC(COc1cccc2ccccc12)CN1CCN(c2ccc(Cl)cc2)CC1 (centres undefined)  HCC-2998 colon       > 100 µM
4  O=C(CCc1ccco1)NC1CCN(CC2(c3ccc(Cl)cc3)CCC2)CC1  HCC-2998 colon        6.02 µM
5     CN(C)CCN1C(=O)c2cccc3c(N)ccc(c23)C1=O  HCC-2998 colon        17.8 µM

Q. // GI50 lookup, key: COc1cccc2c1C(=O)c1c(O)c3c(c(O)c1C2=O)C[C@@](O)(C(=O)CO)C[C@@H]3OC1CC(OC(C)=O)C(OC(C)=O)C(C)O1 (some centres undefined)
A. 1.28 µM

Q. // GI50 lookup, key: COc1ccc(-c2nn(-c3ccc(NC(=O)Nc4ccc(Cl)c(Cl)c4)cc3)cc2-c2ccncc2)cc1Cl
A. 2.78 µM

Q. // GI50 lookup, key: Cc1cc(S(N)(=O)=O)c(S/C(=N\Nc2ccc([N+](=O)[O-])cc2)c2ccc(O)cc2)cc1Cl
A. 1.65 µM

Q. // GI50 lookup, key: COc1ccc2[nH]c(-c3ccccc3)c(C=C(C#N)C#N)c2c1
A. 6.08 µM
